- target entity: Glucose-dependent insulinotropic receptor (Homo sapiens)
- Sequence (Q8TDV5 whole entry): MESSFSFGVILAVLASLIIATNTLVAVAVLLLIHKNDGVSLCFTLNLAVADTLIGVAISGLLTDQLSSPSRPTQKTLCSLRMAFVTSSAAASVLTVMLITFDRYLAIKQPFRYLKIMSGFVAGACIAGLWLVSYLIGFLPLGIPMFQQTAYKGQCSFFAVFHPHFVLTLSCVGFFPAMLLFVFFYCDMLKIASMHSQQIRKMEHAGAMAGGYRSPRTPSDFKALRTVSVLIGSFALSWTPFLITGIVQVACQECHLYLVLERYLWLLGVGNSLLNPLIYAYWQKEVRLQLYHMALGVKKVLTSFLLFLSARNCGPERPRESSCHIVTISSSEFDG
- assay name: Agonist activity at human GPR119 expressed in CHOK1 cells assessed as cAMP accumulation after 1 hr by ultra LANCE assay
pEC50: −log10 of the molar value.
assay readout: pEC50

Answered cases to consult:
CC(C)(C)OC(=O)N1C[C@@H]2CC[C@H]1C[C@@H]2Nc1ncnc2c(Nc3ccc(C#N)cc3F)ncnc12 (relative stereo): 7.31
CC(C)(C)OC(=O)N1[C@@H]2CC[C@H]1C[C@H](Nc1ncnc3c(Nc4ccc(S(C)(=O)=O)cc4F)ncnc13)C2: 6.34
CC(C)(C)OC(=O)N1[C@@H]2CC[C@H]1C[C@@H](Nc1ncnc3c(Nc4ccc(S(C)(=O)=O)cc4)ncnc13)C2: 7.36
CC(C)(C)OC(=O)N1[C@@H]2CC[C@H]1C[C@H](Nc1ncnc3c(Nc4ccc(C#N)cc4F)ncnc13)C2: 5.77

[1] CC(C)(C)OC(=O)N1CCC(Oc2ncnc3c(Nc4ccc(C#N)cc4F)ncnc23)CC1
[2] CC(C)(C)OC(=O)N1CCC(Nc2ncnc3c(Nc4ccc(C#N)cc4F)ncnc23)CC1
[3] CC(C)(C)OC(=O)N1[C@@H]2CC[C@H]1C[C@@H](Oc1ncnc3c(Nc4ccc(C#N)cc4F)ncnc13)C2
(Q) Would you mind ranking these compounds by ascending pEC50? Arrange the labels as the request states and list them.
(A) 1, 2, 3

Cited source: ChEMBL document CHEMBL4229527
